These entries and their values trace back to ChEMBL document CHEMBL1153967.

test system: T47D; test: Growth inhibition of human T47D cells after 48 hrs; type: functional
Could you please mark 1 for values of GI50 below 60 nM and -1 for values at or above it?

Would you please look over these solved cases?
COc1cc(Nc2cc(C(F)(F)F)nc(-c3ccncc3)n2)cc(OC)c1 ... 1
COc1ccc(OC)c(Nc2cc(C(F)(F)F)nc(-c3cccnc3)n2)c1 ... -1
COc1cccc(Nc2cc(C(F)(F)F)nc(-c3cccnc3)n2)c1 ... -1

Shifting focus to the molecule that follows.
## Input Lab note: confirm whether the reported GI50 for this molecule is below 60 nM, equality not counting. molecule: COc1ccc(OC)c(Nc2cc(-c3ccccn3)nc(-c3ccccn3)n2)c1
## Output -1
